Property: pIC50; scope: individual molecules
- study_target: UniProt Q9NS87
- protocol_description: Inhibition of recombinant His6-tagged Kif15 ATPase activity (N420 residues) (unknown origin) expressed in HeLa cells using microtubule as substrate preincubated for 15 mins followed by ATP addition and measured after 20 mins by ADP-Glo luminescence assay
pIC50 is defined as minus the log10 of a concentration measured in mol/L.

Qu. For the molecule O=C1Nc2ccc(I)cc2/C1=C/c1cc(Br)c(O)c(Br)c1 , give its measured pIC50 value.
Ans. 5.60

Qu. For the molecule O=C1Nc2ccc(C(=O)c3ccco3)cc2/C1=C/c1cc(Cl)c(O)c(Cl)c1 , give its measured pIC50 value.
Ans. 6.09

====

- study_target: Kinesin-like protein KIF15 (Homo sapiens)
- protocol_description: Inhibition of recombinant C-terminal truncated His6-tagged Kif15 (N700 residues) (unknown origin) expressed in Escherichia coli BL21 (DE3) assessed as reduction in microtubule gliding measured up to 2 mins
reported_metric: pIC50
pIC50 is defined as minus the log10 of a concentration measured in mol/L.

Qu. For the compound CCOC(=O)c1sc(NC(=O)[C@H](C(C)C)n2c(=O)[nH]c3ccccc3c2=O)nc1C , give its measured pIC50 value.
Ans. 5.76

====

- study_target: Kinesin-like protein KIF15 (Homo sapiens) (UniProt Q9NS87)
- protocol_description: Inhibition of recombinant His6-tagged Kif15 (N700 residues) (unknown origin) expressed in HeLa cells assessed as reduction in Alexa-594 labelled microtubule gliding at 750 nM measured every 2 secs for 20 secs by epifluorescence microscopic analysis (reference value: 1%)
- Type: cell-based
reported_metric: inhibition (%)
Enter your answer as a number in %; do not include the unit.

Qu. For the molecule O=C1Nc2ccc(C(=O)c3ccco3)cc2/C1=C/c1ccc(Br)c(O)c1 , give its measured inhibition value.
Ans. -5.6

Qu. For the molecule O=C1Nc2ccc(C(=O)c3ccco3)cc2/C1=C/c1cc(Br)cc(Br)c1 , give its measured inhibition value.
Ans. 16

Qu. For the molecule O=C1Nc2ccc(C(=O)c3ccco3)cc2/C1=C/c1ccncc1 , give its measured inhibition value.
Ans. 0.8

Qu. For the molecule COc1cc(/C=C2\C(=O)Nc3ccc(C(=O)c4ccco4)cc32)cc(Cl)c1O , give its measured inhibition value.
Ans. -3.5

Qu. For the molecule O=C1Nc2ccc(C(=O)c3ccco3)cc2/C1=C/c1ccc(O)c(C(F)(F)F)c1 , give its measured inhibition value.
Ans. 9.5

Continuing:
Qu. For the molecule O=C1Nc2ccc(C(=O)c3ccco3)cc2/C1=C/c1cc(F)c(O)c(Br)c1 , give its measured inhibition value.
Ans. 38

Qu. For the molecule O=C1Nc2ccc(C(=O)c3ccco3)cc2/C1=C/c1ccc(O)nc1 , give its measured inhibition value.
Ans. 26.5

Qu. For the molecule O=C1Nc2ccc(C(=O)c3ccco3)cc2/C1=C/c1ccc(O)c(Br)c1 , give its measured inhibition value.
Ans. 23

Qu. For the molecule O=C1Nc2ccc(C(=O)c3ccco3)cc2/C1=C/c1cc(F)c(O)c(F)c1 , give its measured inhibition value.
Ans. 21

Qu. For the molecule COc1ccc(/C=C2\C(=O)Nc3ccc(C(=O)c4ccco4)cc32)cc1Br , give its measured inhibition value.
Ans. 2.3

====

- study_target: Kinesin-like protein KIF15 (Homo sapiens)
- Sequence (whole entry): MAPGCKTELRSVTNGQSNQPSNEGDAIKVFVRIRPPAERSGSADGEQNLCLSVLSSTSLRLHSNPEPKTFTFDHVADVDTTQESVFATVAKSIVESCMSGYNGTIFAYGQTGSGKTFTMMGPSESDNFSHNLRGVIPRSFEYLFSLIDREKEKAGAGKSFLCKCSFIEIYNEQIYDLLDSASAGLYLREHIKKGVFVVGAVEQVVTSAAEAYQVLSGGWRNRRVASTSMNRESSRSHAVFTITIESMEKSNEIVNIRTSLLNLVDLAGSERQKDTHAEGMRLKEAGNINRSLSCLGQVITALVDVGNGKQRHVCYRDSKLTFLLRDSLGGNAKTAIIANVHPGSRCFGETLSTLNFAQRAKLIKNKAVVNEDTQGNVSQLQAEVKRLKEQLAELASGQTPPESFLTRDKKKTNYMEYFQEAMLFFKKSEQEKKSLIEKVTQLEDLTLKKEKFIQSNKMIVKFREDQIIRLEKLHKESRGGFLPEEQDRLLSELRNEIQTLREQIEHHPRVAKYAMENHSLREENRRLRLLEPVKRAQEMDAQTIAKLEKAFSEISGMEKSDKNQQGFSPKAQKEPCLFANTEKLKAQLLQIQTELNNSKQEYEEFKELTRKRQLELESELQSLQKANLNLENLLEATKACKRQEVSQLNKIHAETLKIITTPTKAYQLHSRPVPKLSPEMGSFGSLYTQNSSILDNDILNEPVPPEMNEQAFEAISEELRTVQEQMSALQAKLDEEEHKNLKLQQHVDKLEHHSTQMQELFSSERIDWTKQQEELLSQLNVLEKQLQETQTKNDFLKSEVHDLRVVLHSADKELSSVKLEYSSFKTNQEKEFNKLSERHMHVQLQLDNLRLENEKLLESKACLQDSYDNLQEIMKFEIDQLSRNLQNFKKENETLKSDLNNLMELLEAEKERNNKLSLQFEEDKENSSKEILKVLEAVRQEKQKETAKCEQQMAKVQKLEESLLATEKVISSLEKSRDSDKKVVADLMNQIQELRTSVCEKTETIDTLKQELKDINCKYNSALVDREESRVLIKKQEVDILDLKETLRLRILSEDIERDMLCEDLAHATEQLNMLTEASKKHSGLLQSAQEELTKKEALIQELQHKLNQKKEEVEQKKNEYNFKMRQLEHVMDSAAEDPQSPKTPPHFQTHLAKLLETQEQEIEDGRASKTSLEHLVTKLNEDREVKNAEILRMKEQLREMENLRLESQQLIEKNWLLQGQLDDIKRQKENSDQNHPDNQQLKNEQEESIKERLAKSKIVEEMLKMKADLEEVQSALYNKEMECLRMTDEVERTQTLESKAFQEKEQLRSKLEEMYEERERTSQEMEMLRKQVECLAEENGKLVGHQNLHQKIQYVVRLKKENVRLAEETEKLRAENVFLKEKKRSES
- protocol_description: Inhibition of recombinant His6-tagged Kif15 (N700 residues) (unknown origin) expressed in HeLa cells assessed as reduction in Alexa-594 labelled microtubule gliding at 750 nM measured every 2 secs for 20 secs by epifluorescence microscopic analysis (reference value: 1%)
- Type: cell-based
// label = T if inhibition is not less than 20%, otherwise F

The following molecules have reported results that may help.
Qu. I'd appreciate it if you could say whether O=C1Nc2ccc(C(=O)c3ccco3)cc2/C1=C/c1cc(Br)c(O)c(Br)c1 has inhibition at least equal to 20%.
Ans. T

Qu. I'd appreciate it if you could say whether O=C1Nc2ccc(C(=O)N3CCCC3)cc2/C1=C/c1cc(Cl)c(O)c(Cl)c1 has inhibition at least equal to 20%.
Ans. F

Qu. I'd appreciate it if you could say whether O=C1Nc2ccc(C(=O)c3ccco3)cc2/C1=C/c1cc(Cl)c(O)c(Br)c1 has inhibition at least equal to 20%.
Ans. T

Continuing:
Qu. I'd appreciate it if you could say whether CN(C)C(=O)c1ccc2c(c1)/C(=C/c1cc(Cl)c(O)c(Cl)c1)C(=O)N2 has inhibition at least equal to 20%.
Ans. F

Qu. I'd appreciate it if you could say whether O=C1Nc2ccc(C(=O)c3ccco3)cc2/C1=C/c1cc(Cl)c(O)c(Cl)c1 has inhibition at least equal to 20%.
Ans. T

Qu. I'd appreciate it if you could say whether O=C1Nc2ccc(-c3cccc(F)c3)cc2/C1=C/c1cc(Cl)c(O)c(Cl)c1 has inhibition at least equal to 20%.
Ans. F

Qu. I'd appreciate it if you could say whether O=C1Nc2ccc(I)cc2/C1=C/c1cc(Cl)c(O)c(Cl)c1 has inhibition at least equal to 20%.
Ans. F

Qu. I'd appreciate it if you could say whether O=C1Nc2ccc(-c3ccccn3)cc2/C1=C/c1cc(Cl)c(O)c(Cl)c1 has inhibition at least equal to 20%.
Ans. F

Qu. I'd appreciate it if you could say whether O=C1Nc2ccc(C(=O)c3ccco3)cc2/C1=C/c1ccnc(Cl)c1 has inhibition at least equal to 20%.
Ans. F

Qu. I'd appreciate it if you could say whether O=C1Nc2ccc(I)cc2/C1=C/c1cc(F)c(O)c(F)c1 has inhibition at least equal to 20%.
Ans. F

Qu. I'd appreciate it if you could say whether O=C1Nc2ccc(-c3ccco3)cc2/C1=C/c1cc(Cl)c(O)c(Cl)c1 has inhibition at least equal to 20%.
Ans. T

Qu. I'd appreciate it if you could say whether O=C1Nc2ccc(C(=O)c3ccco3)cc2/C1=C/c1cc(I)c(O)c(I)c1 has inhibition at least equal to 20%.
Ans. T

Qu. I'd appreciate it if you could say whether Cc1cc(/C=C2\C(=O)Nc3ccc(C(=O)c4ccco4)cc32)cc(C)c1O has inhibition at least equal to 20%.
Ans. F

Qu. I'd appreciate it if you could say whether O=C1Nc2ccc(C(=O)c3ccco3)cc2/C1=C/c1cccc(O)c1 has inhibition at least equal to 20%.
Ans. F
